assay: yeast display, Sf9 membrane polyspecificity reagent, FACS + sequencing; frameworks hold sequencing errors
ASSAY_ENDPOINT: polyreactivity (PSR sort gate)

- ITEM_SEQUENCE: "QVQLVESGGGLVQAGGSLRLSCAASGFIFSTYVMGWYRQAPGKERELVAAISASGGRTYYADSVKGRFTISRDTAKNTVYLQMNSLKPEDTAVFYCAAEITDTYRWALNYWGQGTQVTVSS"
  ASSAY_ENDPOINT: "polyreactivity (PSR sort gate)"
  MEASURED: "high polyreactivity"
- ITEM_SEQUENCE: "QVQLVESGGGLVQAGGSLRLSCAASGFTFFIYAMGWYRQAPGKERELVAAISWRGDRTYYADSVKGRFTISRDNAKNTVYLQMNSMKPEDTAVYYCAKSVWRRVYYARYDDRHNYWGQGTQVTVSS"
  ASSAY_ENDPOINT: "polyreactivity (PSR sort gate)"
  MEASURED: "high polyreactivity"

====

assay: yeast display, Sf9 membrane polyspecificity reagent, FACS + sequencing; frameworks hold sequencing errors
ASSAY_ENDPOINT: polyreactivity (PSR sort gate)

- ITEM_SEQUENCE: "QVQLVESGGGLVQAGGSLRLSCAASGITVFENAMGWYRQAPGKERELVAAISYSGGSTYYADSVKGRFTISRDNAKNTVYLQMNSLKPEDTAVYYCAADWYYFLYIRNRWGYGYWGQGTQVTVSS"
  ASSAY_ENDPOINT: "polyreactivity (PSR sort gate)"
  MEASURED: "high polyreactivity"
- ITEM_SEQUENCE: "QVQLVESGGGLVQAGGSLRLSCAASGFTINFYGMGWYRQAPGKERELVAAITASGGGSTYYADSVKGRFTISRDNAKNTVYLQMNSLKPEDTAVYYCNADYTGSFYTYDYWGQGTQVTVSS"
  ASSAY_ENDPOINT: "polyreactivity (PSR sort gate)"
  MEASURED: "low polyreactivity"
- ITEM_SEQUENCE: "HVPLVESGGGIVQAGGRMRLSCAASGSTFTEYAMGGYRQAPGKQREWVAGISSDGSTKYADSVKGRFTISRDNAKNTVYLQMNSLNPEDSAVYYCNKDQSDAKFDYWGQGTQVTVSS"
  ASSAY_ENDPOINT: "polyreactivity (PSR sort gate)"
  MEASURED: "low polyreactivity"
- ITEM_SEQUENCE: "QVQLVESGGRLVQAGGSLRLSCAASGSTFNINAMGWYRQAPGKERELVAAISWSGDITYYADSVKGRFTISRDNAKNNVYLQMNSLKPEDTAVYYCNTDDPGNYWYAEYDYWGQGTQVTVSS"
  ASSAY_ENDPOINT: "polyreactivity (PSR sort gate)"
  MEASURED: "low polyreactivity"

Next item in the queue.
QUERY: # input sequence: QVQLVESGGGLVQAGGSLRLSCAASGSTFISYAMGWSRQAPGKERELVAAISRNGGRTYYADSVKGRFTISRDNAKNTVYLQMNSLKPEDTAVYYCAAAYNSYRFDYWGQGTQVTVSS ; wanted: its polyreactivity (PSR sort gate)
RESULT: high polyreactivity

====

experiment: yeast display, Sf9 membrane polyspecificity reagent, FACS + sequencing; frameworks hold sequencing errors
ASSAY_ENDPOINT: polyreactivity (PSR sort gate)

The cases that follow already have their polyreactivity (PSR sort gate) on record.
- ITEM_SEQUENCE: "QVQLVESGGGLVQAGGSLRLSCAASGSIFSSYAMGWYRQAPGKERELVAAISSGGGITYYADSVKGRFTISRDNAKNTVYLQMNSLKPEDTAVYYCNARVARSNNGWYYYWGQGTQVTVSS"
  polyreactivity (PSR sort gate): "high polyreactivity"
- ITEM_SEQUENCE: "QVQLVESGGCLVQARGSLRLSCAASGSTFGTYAMGWYRQPPGKERELVAAIRWSGVSTYYADSVKGRFTISRDNAKNTVYLEMNSLKPEDTAVYYCAVALWVRGTYIYEYWGQGSQVTVSS"
  polyreactivity (PSR sort gate): "high polyreactivity"
- ITEM_SEQUENCE: "QVQLVDSGGGLVQAGGSLRLSCAASGSPFTTYAMGWYRQAPGTERELVAAISTNGGRTFYSDSVKGRFTISRDNAKNSVYLQMNSLKPEDTALYYCAAEYDLYAPGYYYWGEGTQVTVSS"
  polyreactivity (PSR sort gate): "low polyreactivity"
- ITEM_SEQUENCE: "QVQLVESGGGLVQAGGSLRLSCAASGLTFVTNAMGWYRQAPGKERELVAGISWSDGSTYYADSVKGRFTISRDNAKNTVYLQMNSVKPEDSAVYYCNAGVDLHYGYITYGVYGYDYWGQGTQVTVSS"
  polyreactivity (PSR sort gate): "low polyreactivity"

Next item in the queue.
QUERY: # input sequence: QVQLVESGGGLVQAGGSLRLSCAASGSIFSVYSMGWYRQAPGKERELVADITRSGARTYYADSVKGRFTISRDNAKNTVYFPMNSLKPEDTAVYYCAADDPCYDQVEYWGQGTQVTVSS ; wanted: its polyreactivity (PSR sort gate)
RESULT: high polyreactivity

====

experiment: yeast display, Sf9 membrane polyspecificity reagent, FACS + sequencing; frameworks hold sequencing errors
ASSAY_ENDPOINT: polyreactivity (PSR sort gate)

- ITEM_SEQUENCE: "QVQLVESGGGLVQAGGSLRLSCAASGSIFNAYVMGWYRQAPGKERELVAAISRSGGRTYYADSVKGRFTISRDNAKNTVYLQMNSLKPEDNAVYYCAADYGGPYGQLDYWGQGTQVTVSS"
  ASSAY_ENDPOINT: "polyreactivity (PSR sort gate)"
  MEASURED: "high polyreactivity"
- ITEM_SEQUENCE: "QVQLVESGGGLVQAGGSLRLSCAASGSTFAVNAMGWYRQAPGKEREFVASIRGSGGRTSYADSVKGRFTISRDNAKNTVYLQMNCLKPEDTAVYYCAARYVGGTWRSGRYPRSDYWGQGTQVTVSS"
  ASSAY_ENDPOINT: "polyreactivity (PSR sort gate)"
  MEASURED: "high polyreactivity"
- ITEM_SEQUENCE: "QVQLVESGGGLVQAGGSLRLSCAASGRTFDRYAMGWYRQAPGKERELVATISRRSSITYYADSVKGRFTISRDNAKNTVYLQMNRLKPEDTAVYYCAATSLYPTWRRGYDYWGQGTQVTVSS"
  ASSAY_ENDPOINT: "polyreactivity (PSR sort gate)"
  MEASURED: "high polyreactivity"
- ITEM_SEQUENCE: "QVQLVESGGGLVQAGGSLRLSCAASGRIFGINVMGWYRQAPGKERELVARITGRGGRTYYADSVKGRFTISRDNAKNTVYLQMNSLKPEDTAVYYCNAQPSTTGTYDYWGQGTQVTVSS"
  ASSAY_ENDPOINT: "polyreactivity (PSR sort gate)"
  MEASURED: "high polyreactivity"

====

experiment: yeast display, Sf9 membrane polyspecificity reagent, FACS + sequencing; frameworks hold sequencing errors
ASSAY_ENDPOINT: polyreactivity (PSR sort gate)

The cases that follow already have their polyreactivity (PSR sort gate) on record.
- ITEM_SEQUENCE: "QVQLEESGGGLVQAGGSLRLSCAASGIIFSYYDMGRYRQAPGKERELVATITRKGGSTYYADTVKGRFTISRDYAKNTVYFQMNSLKPEDTAVYYCAAQTTVYIYDYWGQGSQVTVSS"
  polyreactivity (PSR sort gate): "low polyreactivity"
- ITEM_SEQUENCE: "QVQLVESGGGLDQAGGRLPLTWAASGFTFWKYAMGLYRQAPGKERELVAANSVSGGRTYYADSVKGRFTISRDNAKNTVSLQMNRLKPEDTAVYFCNATPWRPYVGGEYWGQGTQVTVSS"
  polyreactivity (PSR sort gate): "high polyreactivity"
- ITEM_SEQUENCE: "QVQLVESGGGLVQAGGSLRLSCAASGMTFTYYAMGWYRQAPGKERELVAAISWSDGSTYYADSVKGRFTISRDNAKNTVYLQMNSLKPEDTAVYYCAARYGGAISQAKYYYWGQGTQVTVSS"
  polyreactivity (PSR sort gate): "high polyreactivity"
- ITEM_SEQUENCE: "KSGGGLVQAGGSLRLSCAASGRIFLEYAMAWYKQAPGKERELFASISWSGDSTYYADSVKGRFTISRDNAKNTVYLQKNSLKPEDTAVYYCNADGQVGNAVSYDYWGQGTQVTVSS"
  polyreactivity (PSR sort gate): "low polyreactivity"
- ITEM_SEQUENCE: "QVQLVESGGGLVQAGGSLRLSCAASGITFYPYAMGWYRQAPGKERELVAAITLSTGTTYYADSVKGRFTISRDNAKNTVYLQMNSLKPEDTAVYYCAVEGYWYAGWYAMDYWGQGTQVTVSS"
  polyreactivity (PSR sort gate): "low polyreactivity"
- ITEM_SEQUENCE: "QVQLVESGGGLVQAGGSLRLSCAASGSIYVGNDMGWYSQAPGKESEFVATMSWAGGSTDYADSVKGRFTISRDNAKNTVYLQMNSQKPEDTAVYYCAKTPYSRYRYGGYTYRTFDYWGQGTQVTVSS"
  polyreactivity (PSR sort gate): "low polyreactivity"
- ITEM_SEQUENCE: "QVQLVESGGGLVQAGGSLRISCAASGSNFSIYAMGWYRQAPGKERELVATNYADSVKGRFTISRDNAKNTVYLQMNSLKPEDTAVDYCAADDLSYFWGDVPGDYWGQGTQVTVSS"
  polyreactivity (PSR sort gate): "low polyreactivity"
- ITEM_SEQUENCE: "QVQLQESGGGLAQAGGSLRLSCAASGNIFDADIMGWYRQAPGKERELVGSITDGGSTNYVDSVKGRFTISRDNAKNTVHLQMNSLKPEDTAVYYCAAIAYPDIPTYFDYDSDCFNWGHGTQVTVSS"
  polyreactivity (PSR sort gate): "high polyreactivity"
- ITEM_SEQUENCE: "QVQLVESGGGLVQAGGSLRLSCAASGLTFYGYGMGWYRPGPGKERELVASITSGGNTYYADSVKGRFTISRDNAKNNVYLQMYSLKPEDNAVSYCAVTAIALYYSSGYYWGQGTQVTVSS"
  polyreactivity (PSR sort gate): "low polyreactivity"
- ITEM_SEQUENCE: "QVQLVESGGGLVQAGGSLRISCAASGFTFRWYTMGWYRQAPGKERELVAAISWSGTSTYYADSVKGRFTISRDNAKNTVYLQMNSLKPEDTAVYYCAAADFYYTGADDYWGQGTQVTVSS"
  polyreactivity (PSR sort gate): "high polyreactivity"

QUERY: # input sequence: QVQLVESGGGLVQAGGSRRLSCAASGIIFAQYAMGWYRQAPGKERELVDSISGGGSTTNYADSVKGRFTISRDNAKNTVYLQMNSLKPEDTAVYYCAARTRRRGGIYDYWGQGTQVTVSS ; wanted: its polyreactivity (PSR sort gate)
RESULT: high polyreactivity

QUERY: # input sequence: QVQLVESGGGLVQAGGSLRLSCAASGSTFRFYAMGWYRPAPGKERELVAVIRSTGSTYYADSVKGRFTISRDNAKNTVYLQMNSLKPEDTAVYYCAAQNAWWSNGRSYDYWGQGTQVTVSS ; wanted: its polyreactivity (PSR sort gate)
RESULT: low polyreactivity

QUERY: # input sequence: QVQLVESGGGLVQAGASLRLSCAAAGITIGSNVMGWYRQAPRKERELVAAISQCGGRTYYADSVKGRFTISRDYAKNTVYLQMNSMKPEDTAVYYCAKRQRSFYGRPMCDYWGQGTQVTVSS ; wanted: its polyreactivity (PSR sort gate)
RESULT: high polyreactivity

QUERY: # input sequence: QVQLQERGGVLVQAGGSLRLSCAASGTISYAPHMGWYRQATGKERELVAGITIGGTTYYADSVKGRFTISRDNAIHTVYLHMNSLCRGDTAVYFFAAHSEQYTPFYYWGQGTQLTVSS ; wanted: its polyreactivity (PSR sort gate)
RESULT: low polyreactivity

QUERY: # input sequence: QVQLVESGGGLVQAGGSLRLSCAASGRTLGRNAMGWYRHAPGKERELVARISYSGGRTYYADSVKGRFTISRDNAKNTVYLQMNSLKPEDTAVYYCATLGIVHQYDYWGQGTQVTVSS ; wanted: its polyreactivity (PSR sort gate)
RESULT: low polyreactivity

QUERY: # input sequence: QVQLVESGGGLVQAGGSLRLSCAASGSTFRYYAMGWYRQAPGKERELVAVISTSGNTYYADSVKGRFTISRDNAKNTVYFQMNSLKPEDTAVYYCAARGVGGQISQEYDYWGQGTQVTVSS ; wanted: its polyreactivity (PSR sort gate)
RESULT: low polyreactivity

QUERY: # input sequence: QVQLVESGGGLVQAGGSLRLSCAASGFIFGTYAMGWYRQAPGKERELVAAISVGGGSTYYADSVKGRFTISRDTAKNTVYLQMNSLKPEDTAVYYCAAVQLYQKHQITYVAHEYWGQGTQVTVSS ; wanted: its polyreactivity (PSR sort gate)
RESULT: low polyreactivity

QUERY: # input sequence: QVQLVESGGGLVQAGGSLRLSCAASGRIFVPYAMGWYRPAPGKERELVAAITWRGGRTYYADSVKGRFTISRDNAKNTVYLQMNSLKPEDTAVYYWAARGWTVTERYYWGQGTQVTVSS ; wanted: its polyreactivity (PSR sort gate)
RESULT: high polyreactivity

QUERY: # input sequence: QVQLVESGVGLVQAGGSLRLSCAASGRILYPNTMGWYRQAPGKERELVAAISGSGYRTYYADSVKGRFTISRDNAKNTVYLQMNSLKPEDTAVYYCAASGYWPFRSGFGYWGQGTQVTVSS ; wanted: its polyreactivity (PSR sort gate)
RESULT: high polyreactivity

QUERY: # input sequence: QVQLVESGGGLVQAGGSLRLSCAASGSIFSVYVMGWYRQAPGKERELVAAISWSDSDTYYADSVKGRFTISRDNAKNTVYLQMNSLKPEDTAVYYCNVVNPVLYSSYEFDYWGQGTQVTVSS ; wanted: its polyreactivity (PSR sort gate)
RESULT: high polyreactivity

QUERY: # input sequence: QVQLVESGGGLDQARGSLRLSCAASGRIFELYAMGWYRQAPGKERELVAAITSSGGTTYYADSVKGRFTISRDNAKNTVYLQMNSLKPEDTAVYYCNTVYATRYDYWGQGTQVTVSS ; wanted: its polyreactivity (PSR sort gate)
RESULT: high polyreactivity
